# assay_comment: Therapeutic index, ratio of TC50 for mouse RAW264.7 cells to EC50 for Leishmania infantum zymodeme MON-1 axenic amastigotes
# condition_details: read-out: TI
measurement_kind: selectivity ratio

Below are worked cases with known answers.
{"molecule": "COc1ccc([C@H](CC(=O)c2ccccc2)[C@H]2C(=O)Nc3ccccc32)cc1 (relative stereo)", "selectivity ratio": 1.7}
{"molecule": "O=C(CC(c1ccc(Cl)cc1)C1C(=O)Nc2ccccc21)c1ccccc1 (centres undefined)", "selectivity ratio": 2}
{"molecule": "C[C@@H]1[C@H](O)[C@@H](C)/C=C/C=C/C=C/C=C/C=C/C=C/C=C/[C@H](O[C@@H]2O[C@H](C)[C@@H](O)[C@H](N)[C@@H]2O)C[C@@H]2O[C@](O)(C[C@@H](O)C[C@@H](O)[C@H](O)CC[C@@H](O)C[C@@H](O)CC(=O)O[C@H]1C)C[C@H](O)[C@H]2C(=O)O", "selectivity ratio": 39.1}

Now look at this entry.
The recorded selectivity ratio for O=C1C[C@@H](c2ccc(Cl)cc2)C2(C(=O)Nc3ccccc32)[C@H](c2ccc(Cl)cc2)C1 is 2.1
